target: 5-hydroxytryptamine receptor 2B (Homo sapiens, UniProt P41595); type: functional, cell-based; further: assay procedure not described here
Sequence (P41595 whole entry): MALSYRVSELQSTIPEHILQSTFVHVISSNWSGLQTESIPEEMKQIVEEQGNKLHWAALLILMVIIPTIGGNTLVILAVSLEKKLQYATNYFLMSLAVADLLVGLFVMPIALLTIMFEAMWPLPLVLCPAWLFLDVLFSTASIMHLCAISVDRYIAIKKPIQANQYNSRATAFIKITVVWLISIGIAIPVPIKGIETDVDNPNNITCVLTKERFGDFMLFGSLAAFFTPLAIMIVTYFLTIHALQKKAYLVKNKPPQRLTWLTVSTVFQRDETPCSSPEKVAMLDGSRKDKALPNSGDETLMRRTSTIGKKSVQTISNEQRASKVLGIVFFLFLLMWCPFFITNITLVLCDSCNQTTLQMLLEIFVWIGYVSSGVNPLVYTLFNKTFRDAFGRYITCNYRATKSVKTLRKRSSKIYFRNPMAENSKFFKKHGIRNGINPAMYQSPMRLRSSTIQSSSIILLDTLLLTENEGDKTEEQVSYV
readout.label: AC50

molecule: CC[N+]1(C)CCCC(OC(=O)C(O)(c2ccccc2)c2ccccc2)C1 (stereo not given) [PIPENZOLATE]
system: 5-hydroxytryptamine receptor 2B (Homo sapiens, UniProt P41595); further: assay procedure not described here
readout.label: AC50
result: > 30 µM
--
molecule: C[C@@H]1CCC[C@H](C)N1NC(=O)c1ccc(Cl)c(S(N)(=O)=O)c1 [CLOPAMIDE]
system: 5-hydroxytryptamine receptor 2B (Homo sapiens, UniProt P41595); further: assay procedure not described here
readout.label: AC50
result: > 30 µM
--
molecule: O=C(CCCN1CCC2(CC1)C(=O)NCN2c1ccccc1)c1ccc(F)cc1
system: 5-hydroxytryptamine receptor 2B (Homo sapiens, UniProt P41595); further: assay procedure not described here
readout.label: AC50
result: 5.21 µM
--
molecule: CNCC[C@@H](Oc1ccccc1C)c1ccccc1
system: 5-hydroxytryptamine receptor 2B (Homo sapiens, UniProt P41595); further: assay procedure not described here
readout.label: AC50
result: > 30 µM
--
molecule: O=C1CN2Cc3c(ccc(Cl)c3Cl)N=C2N1 [ANAGRELIDE]
system: 5-hydroxytryptamine receptor 2B (Homo sapiens, UniProt P41595); further: assay procedure not described here
readout.label: AC50
result: > 10 µM

###

Molecular target: Neuropeptide Y receptor type 1 (Homo sapiens, UniProt P25929); further: assay procedure not described here
Sequence (P25929 whole entry): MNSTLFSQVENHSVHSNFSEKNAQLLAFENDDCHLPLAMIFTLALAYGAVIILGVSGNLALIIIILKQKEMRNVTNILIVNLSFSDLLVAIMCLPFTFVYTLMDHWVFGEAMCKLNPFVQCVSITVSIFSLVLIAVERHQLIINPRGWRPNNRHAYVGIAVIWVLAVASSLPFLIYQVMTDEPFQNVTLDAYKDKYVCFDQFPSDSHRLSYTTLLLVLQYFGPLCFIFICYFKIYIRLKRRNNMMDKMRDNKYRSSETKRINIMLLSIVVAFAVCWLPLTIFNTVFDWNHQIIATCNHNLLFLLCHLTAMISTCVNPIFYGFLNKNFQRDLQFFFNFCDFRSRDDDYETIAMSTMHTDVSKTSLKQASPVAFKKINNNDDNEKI
Overview of recorded AC50 for various compounds
readout.label: AC50

compound: CCC(C)(Oc1ccc(C2(c3ccc(OC(C)(CC)C(=O)O)cc3)CCCCC2)cc1)C(=O)O (stereo unspecified) [CLINOFIBRATE]
readout.label: AC50
result: > 30 µM

compound: [H]/N=C(\N/C(=N/[H])NCCCCCCNC(=N)NC(=N)Nc1ccc(Cl)cc1)Nc1ccc(Cl)cc1 [CHLORHEXIDINE]
readout.label: AC50
result: 2.2 µM

compound: NS(=O)(=O)c1cc2c(cc1C(F)(F)F)NC(Cc1ccccc1)NS2(=O)=O (stereo unspecified) [BENDROFLUMETHIAZIDE]
readout.label: AC50
result: > 10 µM

compound: CC(NCCc1ccc(O)cc1)C(O)c1ccc(O)cc1 (stereo unspecified) [RITODRINE]
readout.label: AC50
result: > 30 µM

compound: CCN(CC)C(=O)C1CN2CCc3cc(OC)c(OC)cc3C2CC1OC(C)=O (stereo unspecified) [BENZQUINAMIDE]
readout.label: AC50
result: > 30 µM

compound: NCCCC(O)(P(=O)(O)O)P(=O)(O)O [ALENDRONIC ACID]
readout.label: AC50
result: > 30 µM
